Consider the following compounds and their measured Log 1/MMIC readings.
system: Mycobacterium tuberculosis; experiment: In vitro activity against Mycobacterium tuberculosis (ATCC 35801); assay type: functional
ASSAY READOUT: Log 1/MMIC

INSERT INTO measurements (compound, assay_readout, reading) VALUES
  ('CCCCCCCCCC(C)OC(=O)c1cnc(Cl)cn1 (stereo not drawn)', 'Log 1/MMIC', 3.398),
  ('CCCCCCCCCCOC(=O)c1cnccn1', 'Log 1/MMIC', 3.024),
  ('CCCCCC(C)OC(=O)c1cnc(Cl)cn1 (stereo not drawn)', 'Log 1/MMIC', 2.711),
  ('CCCCCCCC(C)(CCCC)OC(=O)c1cnc(Cl)cn1 (stereo not drawn)', 'Log 1/MMIC', 1.931),
  ('CCCCCCCCC(C)(C)OC(=O)c1cnc(Cl)cn1', 'Log 1/MMIC', 2.796),
  ('CCC(C)(CC)OC(=O)c1cnc(Cl)cn1', 'Log 1/MMIC', 1.482),
  ('CCCCCCCCCCCC(C)OC(=O)c1cnc(Cl)cn1 (stereo not drawn)', 'Log 1/MMIC', 2.834),
  ('CCCCCCCCCCOC(=O)c1cnc(F)cn1', 'Log 1/MMIC', 1.849),
  ('CCCCCOC(=O)c1cnc(Cl)cn1', 'Log 1/MMIC', 2.961),
  ('CCCCCC(CC)OC(=O)c1cnc(Cl)cn1 (stereo not drawn)', 'Log 1/MMIC', 3.035),
  ('O=C(OCc1ccccc1)c1cnc(Cl)cn1', 'Log 1/MMIC', 2.697),
  ('CCCCCCC(C)(C)OC(=O)c1cnc(Cl)cn1', 'Log 1/MMIC', 1.852),
  ('CCCCCC(CC)OC(=O)c1cnc(C)cn1 (stereo not drawn)', 'Log 1/MMIC', 2.7),
  ('CCCCCCCCCOC(=O)c1cnc(C)cn1', 'Log 1/MMIC', 2.422),
  ('CCCCCCCC(C)(CCCCC)OC(=O)c1cnc(Cl)cn1 (stereo not drawn)', 'Log 1/MMIC', 1.948),
  ('CCCCCCCCC(C)OC(=O)c1cnc(Cl)cn1 (stereo not drawn)', 'Log 1/MMIC', 2.776),
  ('CCCCCCCC(C)OC(=O)c1cnc(Cl)cn1 (stereo not drawn)', 'Log 1/MMIC', 2.756),
  ('COC(=O)c1cnc(C)cn1', 'Log 1/MMIC', 1.279),
  ('CCCOC(=O)c1cnc(Cl)cn1', 'Log 1/MMIC', 3.825),
  ('CCCCCC(C)(CCCC)OC(=O)c1cnc(Cl)cn1 (stereo not drawn)', 'Log 1/MMIC', 1.592),
  ('CCCCCCCCCCCOC(=O)c1cnc(Cl)cn1', 'Log 1/MMIC', 2.796),
  ('CCCOC(=O)c1cnc(C)cn1', 'Log 1/MMIC', 1.654),
  ('CCCCCCOC(=O)c1cnc(F)cn1', 'Log 1/MMIC', 1.753),
  ('CCCCCCC(C)(CCCCCC)OC(=O)c1cnc(Cl)cn1', 'Log 1/MMIC', 2.851),
  ('CC(C)(C)OC(=O)c1cnc(Cl)cn1', 'Log 1/MMIC', 2.031),
  ('COC(=O)c1cnc(I)cn1', 'Log 1/MMIC', 1.218),
  ('COC(=O)c1cnccn1', 'Log 1/MMIC', 0.936),
  ('CCCCCCCCCC(C)(C)OC(=O)c1cnc(Cl)cn1', 'Log 1/MMIC', 2.514),
  ('CCCCCCC(C)(CCCC)OC(=O)c1cnc(Cl)cn1 (stereo not drawn)', 'Log 1/MMIC', 1.611),
  ('CC(C)COC(=O)c1cnccn1', 'Log 1/MMIC', 1.654),
  ('CCCCCCCCCOC(=O)c1cnc(Cl)cn1', 'Log 1/MMIC', 2.455),
  ('CCCCCCCCCCOC(=O)c1cnc(Cl)cn1', 'Log 1/MMIC', 3.077),
  ('CCCCOC(=O)c1cnc(Cl)cn1', 'Log 1/MMIC', 3.633),
  ('CCCCCCCOC(=O)c1cnc(C)cn1', 'Log 1/MMIC', 2.976),
  ('CC(C)COC(=O)c1cnc(Cl)cn1', 'Log 1/MMIC', 2.934),
  ('CCCCCCOC(=O)c1cnc(Cl)cn1', 'Log 1/MMIC', 3.288),
  ('CCCCCCC(C)OC(=O)c1cnc(F)cn1 (stereo not drawn)', 'Log 1/MMIC', 1.803),
  ('CCCCCCCCC(CC)OC(=O)c1cnc(Cl)cn1 (stereo not drawn)', 'Log 1/MMIC', 2.495);
